system: MMP-13 (Homo sapiens)
recorded.metric: pIC50
The scale used: pIC50 is minus the common logarithm of the concentration in molar units.

Specify pIC50 for "COc1ccc(S(=O)(=O)N(CC(=O)NO)CC(C)C)cc1" and stop.
6.44

----------
system: MMP-10 (Homo sapiens)
Sequence (P09238 99-476): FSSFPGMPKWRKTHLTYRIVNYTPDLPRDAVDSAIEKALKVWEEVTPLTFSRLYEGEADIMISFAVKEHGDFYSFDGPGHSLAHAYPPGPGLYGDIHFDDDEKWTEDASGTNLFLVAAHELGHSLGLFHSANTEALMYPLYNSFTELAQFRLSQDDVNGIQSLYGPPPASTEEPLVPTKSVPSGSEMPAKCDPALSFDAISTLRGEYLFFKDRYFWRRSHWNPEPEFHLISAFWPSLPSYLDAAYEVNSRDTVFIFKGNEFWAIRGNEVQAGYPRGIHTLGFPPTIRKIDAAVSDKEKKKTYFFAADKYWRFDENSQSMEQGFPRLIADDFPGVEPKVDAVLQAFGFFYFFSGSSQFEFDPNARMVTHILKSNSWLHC
recorded.metric: IC50 (nM)
Lab book: enter the figure in nM, no units written.

Please tell me the measured IC50 for "COc1ccc(S(=O)(=O)N(CC(=O)NO)CC(C)C)cc1" ; system: MMP-10 (Homo sapiens).
101

----------
system: MMP-9 (Homo sapiens, UniProt P14780)
Sequence (P14780 94-707): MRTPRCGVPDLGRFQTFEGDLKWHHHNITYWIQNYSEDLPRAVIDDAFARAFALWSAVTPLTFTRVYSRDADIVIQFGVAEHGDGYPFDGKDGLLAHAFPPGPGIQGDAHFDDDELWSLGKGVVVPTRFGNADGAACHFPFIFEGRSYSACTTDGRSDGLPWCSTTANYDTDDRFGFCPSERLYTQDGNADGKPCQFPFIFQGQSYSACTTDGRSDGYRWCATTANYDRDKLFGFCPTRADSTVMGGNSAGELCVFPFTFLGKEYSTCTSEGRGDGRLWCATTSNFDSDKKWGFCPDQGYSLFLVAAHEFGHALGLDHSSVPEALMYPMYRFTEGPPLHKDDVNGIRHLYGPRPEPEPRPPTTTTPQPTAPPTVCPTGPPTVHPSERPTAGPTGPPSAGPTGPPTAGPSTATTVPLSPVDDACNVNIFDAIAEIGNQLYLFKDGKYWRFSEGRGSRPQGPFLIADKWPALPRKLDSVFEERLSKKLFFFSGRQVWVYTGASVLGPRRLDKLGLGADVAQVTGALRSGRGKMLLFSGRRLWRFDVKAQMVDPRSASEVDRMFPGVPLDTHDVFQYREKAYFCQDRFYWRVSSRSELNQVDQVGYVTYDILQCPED
recorded.metric: pIC50
The scale used: pIC50 is minus the common logarithm of the concentration in molar units.

Specify pIC50 for "COc1ccc(S(=O)(=O)N(CC(=O)NO)CC(C)C)cc1" and stop.
7.14
